Reference for the values: patent US5541174A

- Tested on: acetic acid induced writhing in mice
- Measurement Description: Acetic acid-induced writhing test
- Type: in vivo, ICR male mice
- Condition Info: oral, PG-PVA in saline
Readout: ED50 (mmol/kg)
Provide only the numeric value, understood in mmol/kg.

Compound	Observed Result
COc1ccc2c(c1)c(CC(=O)O)c(C)n2C(=O)c1ccc(Cl)cc1 [Indomethacin, reference compound]	0.01
COc1ccc2c(c1)c(CC(=O)[O-])c(C)n2C(=O)c1ccc(Cl)cc1.COc1ccc2c(c1)c(CC(=O)[O-])c(C)n2C(=O)c1ccc(Cl)cc1.COc1ccc2c(c1)c(CC(=O)[O-])c(C)n2C(=O)c1ccc(Cl)cc1.COc1ccc2c(c1)c(CC(=O)[O-])c(C)n2C(=O)c1ccc(Cl)cc1.[Cu+2].[Cu+2]	0.002
CC(=O)Oc1ccccc1C(=O)O [Aspirin, acetylsalicylic acid, reference compound]	0.48

Now look at this entry.
Entry CC(C)c1cc(C(=O)O)c(O)c(C(C)C)c1 [3,5-Dips, 3,5-diisopropylsalicylic acid, reference compound] : reported ED50 = ?
0.44

----------
- System: acetic acid induced writhing in mice
- Measurement Description: Acetic acid-induced writhing test
- Format: in vivo, ICR male mice
- Condition Info: oral, PG-PVA in saline
// reported ED50 per item

# count of solved cases: 2
Compound	Target Or System	Observed Result
CC(C)c1cc(C(=O)[O-])c(O)c(C(C)C)c1.CC(C)c1cc(C(=O)[O-])c(O)c(C(C)C)c1.[Cu+2]	acetic acid induced writhing in mice	0.43 mmol/kg
Nc1ccccc1C(=O)O [Anthranilic acid, reference compound]	acetic acid induced writhing in mice	> 2.19 mmol/kg

Entry O=C(O)c1ccccc1O [Salicylic acid, reference compound] : reported ED50 = ?
> 2.17 mmol/kg

Let us now turn to O=C(O)c1cccnc1Nc1cccc(C(F)(F)F)c1 [Niflumic acid, reference compound]
0.21 mmol/kg
